// data source = ChEMBL document CHEMBL5226341

tested on: MV4-11; experiment: Antiproliferative activity against human MV4-11 cells assessed as inhibition of cell growth incubated for 72 hrs by CellTiterGlo luminescent assay; type: functional, cell-based; conditions: MV4-11, 72 h
quantity-measured: IC50 (nM)

Answered cases to consult:
compound=COCCNc1ccc(C(=O)Nc2cc(-c3ccc4ncn(Cc5c(Cl)cccc5Cl)c4c3)[nH]n2)cc1 quantity_measured=IC50 endpoint_value=6.37
compound=O=C(Nc1cc(-c2ccc3ncn(Cc4ccccc4Cl)c3c2)[nH]n1)c1ccc(N2CCOCC2)cc1 quantity_measured=IC50 endpoint_value=9.02
compound="O=C(Nc1cc(-c2ccc3ncn(Cc4c(Cl)cccc4Cl)c3c2)[nH]n1)c1ccc(N2CC3CC2CN3)cc1 (stereo not drawn)" quantity_measured=IC50 endpoint_value=2.26
compound=CCN1CCN(c2ncc(C(=O)Nc3cc(-c4ccc5ncn(Cc6c(Cl)cccc6Cl)c5c4)[nH]n3)cn2)CC1 quantity_measured=IC50 endpoint_value=12.6
compound=COc1ccccc1Cn1cnc2ccc(-c3cc(NC(=O)c4ccc(NC5CCN(C)CC5)cc4)n[nH]3)cc21 quantity_measured=IC50 endpoint_value=33.6

(A) CCN1CCN(c2ccc(C(=O)Nc3cc(-c4ccc5ncn(Cc6c(F)cccc6Cl)c5c4)[nH]n3)cc2)CC1
(B) CN1CCC(Nc2ccc(C(=O)Nc3cc(-c4ccc5ncn(Cc6ccccc6)c5c4)[nH]n3)cc2F)CC1
# compare IC50 for A vs B ; return the one with the smaller value State your choice using its label.
A
(A: 2.61 nM, B: 32.6 nM)
